# protocol-text: ATG_PBREM_CIS: Attagene CIS-FACTORIAL HepG2 Assay for human Phenobarbital-responsive Enhancer Module (PBREM) (AID 2282955)
# condition-set: HepG2 PBREM cis-reporter, Attagene multiplexed transcription; actives raise or lower the signal
Active and inactive are the calls of the source. How the source made its calls: active means hit-call score of the fitted dose curve at least 0.9, where 1 is the maximum; inactive means score below 0.9.
Mark one answer only. Choices: yes = active, no = inactive

molecule: CCC[N+](=O)[O-]
assigned-label: no
--
molecule: COC(=O)c1ccccc1S(=O)(=O)NC(=O)Nc1nc(C)cc(C)n1
assigned-label: no
--
molecule: N#Cc1cc(I)c(O)c(I)c1
assigned-label: no
--
molecule: N#CCCCCC#N
assigned-label: no
--
molecule: N#Cc1cccc(C#N)c1
assigned-label: no

Asked: Dear colleague, could you share the recorded outcome for Cc1ccccc1CCl when you have a moment?
Given back: no

Asked: Please indicate how the test categorized CC(O)CN(CC(C)O)CC(C)O (centres undefined) .
Given back: no

Asked: Hi, sorry to bother you, what did the test record for O=C(NC(=O)c1c(F)cccc1F)Nc1ccc(Oc2ccc(C(F)(F)F)cc2Cl)cc1F ?
Given back: no

Asked: What classification did C[C@]12CCC(=O)C(O)=C1CC[C@@H]1[C@@H]2CC[C@]2(C)C(=O)CC[C@@H]12 end up with in this test?
Given back: no

Asked: What outcome does the record of this test show for Cc1ccc(C)c2ccccc12 ?
Given back: no

Asked: Could you please tell me the result logged for C=C(Cl)Cl in this assay?
Given back: no

Asked: Per the assay record, what outcome was assigned to CC(Cc1ccc(C(C)(C)C)cc1)CN1C[C@@H](C)O[C@@H](C)C1 (some centres undefined) ?
Given back: yes

Asked: Test call, this molecule: CNC(=N[N+](=O)[O-])NCC1CCOC1 (centres undefined)
Given back: no

Asked: What did this assay record as the result for CCCCCCCCCCCCCCCC[N+](C)(C)C ?
Given back: no

Asked: Recorded call for O=C1C=CC(=O)C=C1 ?
Given back: no

Asked: Entry CCC(C)c1cc([N+](=O)[O-])cc([N+](=O)[O-])c1OC(=O)C=C(C)C (centres undefined) : call = ?
Given back: no

Asked: Entry Nc1ccccc1C(=O)Oc1ccc2ccccc2c1 : call = ?
Given back: no

These measurements were taken from PubChem BioAssay (EPA / NIEHS).
